- system tested: human bradykinin 1 receptor (B1R) (Homo sapiens, UniProt P46663)
- Construct: expressed in transfected cells; host or cells: CHO K1 cells
- Sequence (P46663 whole entry): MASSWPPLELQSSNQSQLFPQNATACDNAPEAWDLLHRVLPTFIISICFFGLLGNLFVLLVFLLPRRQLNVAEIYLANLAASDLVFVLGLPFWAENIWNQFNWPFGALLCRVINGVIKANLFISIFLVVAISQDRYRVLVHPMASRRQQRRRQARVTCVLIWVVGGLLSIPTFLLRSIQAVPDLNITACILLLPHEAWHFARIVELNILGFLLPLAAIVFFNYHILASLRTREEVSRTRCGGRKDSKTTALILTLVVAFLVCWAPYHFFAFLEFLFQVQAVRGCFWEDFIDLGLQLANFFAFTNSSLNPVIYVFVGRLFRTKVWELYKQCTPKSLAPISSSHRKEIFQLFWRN
- procedure details: Functional investigation on the human bradykinin 1 receptor (B1R), Ca2+ FLIPR assay in CHO K1 hB1R cells
- Format: cell-based
- test context: B1R antagonism human; test substance 10 μM; Ca2+ FLIPR, CHO K1 hB1R cells
- Description: Functional Investigation on the Human Bradykinin 1 Receptor (B1R) The agonistic or antagonistic action of substances can be determined on the bradykinin 1 receptor (B1R) of the human species and rats with the following assay. In accordance with this assay, the Ca^2+ inflow through the channel is quantified with the aid of a Ca^2=-sensitive dyestuff (type Fluo-4, Molecular Probes Europe BV, Leiden, Holland) in a fluorescent imaging plate reader (FLIPR, Molecular Devices, Sunnyvale, USA). […]
Catalogue of B1R Ant. h [10 μM] % Inhibition values

| molecule | B1R Ant. h [10 μM] % Inhibition |
| --- | --- |
| CN(C)C(c1ccc(Cl)cc1)C1CCC(CNC(=O)COCCN(C)S(=O)(=O)c2c(Cl)cc(Cl)cc2Cl)CC1 (stereo not shown) | 104% |
| COc1ccc(S(=O)(=O)N2CCCCC2COCC(=O)NCCC2CCC(C(c3cccc(F)c3)N(C)C)CC2)cc1OC (stereo not shown) | 2% |
| CN(C)C(c1ccc(F)cc1)C1CCC(CNC(=O)COC2CCN(S(=O)(=O)c3ccc(Cl)cc3Cl)C2)CC1 (stereo not shown) | 71% |
| CN(C)C(c1ccccc1)C1CCC(CNC(=O)COC2CCN(S(=O)(=O)c3ccccc3)CC2)CC1 (stereo not shown) | −35% |
| COc1cc(C)c(S(=O)(=O)N(CCOCC(=O)NCC2CCC(C(CCc3ccccc3)N(C)C)CC2)Cc2ccccc2)c(C)c1 (stereo not shown) | 103% |
| CN(C)C(c1ccc(F)cc1)C1CCC(CNC(=O)COCC2CCCN(S(=O)(=O)c3ccccc3)C2)CC1 (stereo not shown) | −12% |
| COc1cc(C)c(S(=O)(=O)N2CCCC(OCC(=O)NCCC3CCC(C(c4ccc(Cl)cc4)N(C)C)CC3)C2)c(C)c1C (stereo not shown) | 5% |
| CN(C)C(c1ccccc1)C1CCC(CNC(=O)COCCC2CCN(S(=O)(=O)c3ccccc3)CC2)CC1 (stereo not shown) | −19% |
| COc1ccc(S(=O)(=O)N2CCC(OCC(=O)NCC3CCC(C(CCc4ccccc4)N(C)C)CC3)C2)cc1OC (stereo not shown) | 1% |
| COc1ccc(S(=O)(=O)N2CCCCC2CCOCC(=O)NCCC2CCC(C(c3cccc(F)c3)N(C)C)CC2)cc1 (stereo not shown) | 78% |
| CN(C)C(c1cccc(F)c1)C1CCC(NC(=O)COCCN(C)S(=O)(=O)c2cccc(C(F)(F)F)c2)CC1 (stereo not shown) | 15% |
| CN(C)C(c1ccc(F)cc1)C1CCC(NC(=O)COCCN(C)S(=O)(=O)c2c(Cl)cc(Cl)cc2Cl)CC1 (stereo not shown) | 103% |
| CN(C)C(c1cccc(F)c1)C1CCC(CCNC(=O)COC2CCN(S(=O)(=O)c3ccccc3)C2)CC1 (stereo not shown) | −17% |
| COc1ccc(S(=O)(=O)N2Cc3ccccc3CC2COCC(=O)NCCC2CCC(C(c3ccc(Cl)cc3)N(C)C)CC2)cc1 (stereo not shown) | 18% |
| COc1cc(C)c(S(=O)(=O)N2CCN(CCOCC(=O)NCC3CCC(C(c4ccc(Cl)cc4)N(C)C)CC3)CC2)c(C)c1C (stereo not shown) | 75% |
| CCN(CCOCC(=O)NCCC1CCC(C(c2ccc(F)cc2)N(C)C)CC1)S(=O)(=O)c1c(C)cc(OC)c(C)c1C (stereo not shown) | 96% |
| COc1cc(C)c(S(=O)(=O)N2CCCC(OCC(=O)NCC3CCC(C(CCc4ccccc4)N(C)C)CC3)C2)c(C)c1C (stereo not shown) | 94% |
| COc1cc(C)c(S(=O)(=O)N2CCC(OCC(=O)NC3CCC(C(c4cccc(F)c4)N(C)C)CC3)CC2)c(C)c1C (stereo not shown) | 37% |
| COc1cc(C)c(S(=O)(=O)N(C)CCOCC(=O)NCCC2CCC(C(c3ccc(Cl)cc3)N(C)C)CC2)c(C)c1 (stereo not shown) | 104% |
| CN(C)C(c1ccc(F)cc1)C1CCC(NC(=O)COC2CCN(S(=O)(=O)c3ccccc3)CC2)CC1 (stereo not shown) | −16% |
| CN(C)C(c1cccc(F)c1)C1CCC(CNC(=O)COC2CCN(S(=O)(=O)c3ccc(F)cc3)C2)CC1 (stereo not shown) | 15% |
| COc1ccc(S(=O)(=O)N(C)CCOCC(=O)NC2CCC(C(c3cccc(F)c3)N(C)C)CC2)cc1OC (stereo not shown) | −19% |
| CN(C)C(c1ccc(F)cc1)C1CCC(CNC(=O)COCCN(C)S(=O)(=O)c2ccc(Cl)cc2)CC1 (stereo not shown) | 20% |
| COc1cc(C)c(S(=O)(=O)N(C)CCOCC(=O)NC2CCC(C(c3ccccc3)N(C)C)CC2)c(C)c1C (stereo not shown) [Example 80] | 98% |
| Cc1ccc(S(=O)(=O)N2CCC(OCC(=O)NCCC3CCC(C(c4ccc(F)cc4)N(C)C)CC3)C2)cc1 (stereo not shown) | 5% |
| CN(C)C(c1ccc(F)cc1)C1CCC(CCNC(=O)COC2CCN(S(=O)(=O)c3ccccc3)CC2)CC1 (stereo not shown) | −21% |
| CCN(CCOCC(=O)NCCC1CCC(C(c2cccc(F)c2)N(C)C)CC1)S(=O)(=O)c1c(C)cc(OC)c(C)c1C (stereo not shown) | 64% |
| Cc1ccc(S(=O)(=O)N(C)CCOCC(=O)NCC2CCC(C(c3ccc(F)cc3)N(C)C)CC2)cc1 (stereo not shown) | 7% |
